For each entry below, report its pKd value.
- subject-of-test: T1, human TNFR1 (recombinant, R&D Systems cat no. 636-R1/CF, biotinylated) (human, UniProt P19438 30-211, limits assumed, biotinylated with EZ-Link NHS-LC-LC-biotin)
- T1 construct: it is not tied to the BIAcore reagent; also called p55; hTNFR1
- T1 sequence (looked up): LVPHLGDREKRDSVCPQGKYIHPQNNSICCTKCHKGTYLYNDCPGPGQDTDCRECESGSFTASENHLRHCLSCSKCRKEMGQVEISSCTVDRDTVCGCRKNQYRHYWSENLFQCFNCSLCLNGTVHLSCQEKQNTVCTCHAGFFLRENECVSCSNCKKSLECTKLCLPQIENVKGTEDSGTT
- procedure-summary: BIAcore, human TNFR1 on SA chip
One number for each entry, as −log10 of the molar value.

Some solved entries appear below for comparison.
DOM1h-574-162 (other, VH dAb) VH: EVQLLESGGGLVQPGGSLRLSCAASGFTFFKYSMGWVRQAPGKGLEWVSQISDTADRTYYSHSVKGRFTISRDNSKNTLYLQMNSLRAEDTAVYYCAIYTGRWVPFEYWGQGTLVTVSS; 9.82
DOM1h-574-109 (other, VH dAb) VH: EVQLLESGGGLVQPGGSLRLSCAASGFTFVKYSMGWVRQAPGKGLEWVSQISDTADRTYYAHSVKGRFTISRDNSKNTLYLQMNSLRAEDTAVYYCAIYTGRWVPFEYWGQGTLVTVSS; 9.64
DOM1h-574-72 (other, VH dAb; expressed in E. coli, purified on Protein A) VH: EVQLLESGGGLVQPGGSLRLSCAASGFTFVKYSMGWVRQAPGKGLEWVSQISNTADRTYYAHSVKGRFTISRDNSKNTLYLQMNSLRAEDTAVYYCAIYTGRWVPFEYWGQGTLVTVSS; 9.46
DOM1h-574-155 (other, VH dAb) VH: EVQLLESGGGLVQPGGSLRLSCAASGFTFLKYSMGWVRQAPGKGLEWVSQISDTADRTYYAHSVKGRFTISRDNSKNTLYLQMNSLRAEDTAVYYCAIYTGRWVPFEYWGQGTLVTVSS; 9.74
DOM1h-574-138 (other, VH dAb) VH: EVQLLESGGGLVQPGGSLRLSCAASGFTFFKYSMGWVRQAPGKGLEWVSQISDTADRTYYAHSVKGRFTISRDNSKNTLYLQMNSLRAEDTAVYYCAIYTGRWAPFEYWGQGTLVTVSS; 9.82
DOM1h-574-139 (other, VH dAb) VH: EVQLLESGGGLVQPGGSLRLSCAASGFTFLKYSMGWVRQAPGKGLEWVSQISDTADRTYYAHSVKGRFTISRDNSKNTLYLQMNSLRAEDTAVYYCAIYTGRWAPFEYWGQGTLVTVSS; 9.57

Items follow; give pKd for each.
1. DOM1h-574-135 (other, VH dAb) VH: EVQLLESGGGLVQPGGSLRLSCAASGFTFVKYSMGWVRQAPGKGLEWVSQISDTADRTYYTHSVKGRFTISRDNSKNTLYLQMNSLRAEDTAVYYCAIYTGRWVPFEYWGQGTLVTVSS
2. DOM1h-574-156 (other, VH dAb) VH: EVQLLESGGGLVQPGGSLRLSCAASGFTFFKYSMGWVRQAPGKGLEWVSQISDTADRTYYAHSVKGRFTISRDNSKNTLYLQMNSLRAEDTAVYYCAIYTGRWVPFEYWGQGTLVTVSS
3. DOM1h-574-133 (other, VH dAb) VH: EVQLLESGGGLVQPGGSLRLSCAASGFTFVKYSMGWVRQAPGKGLEWVSQISDTADRTYYDHSVKGRFTISRDNSKNTLYLQMNSLRAEDTAVYYCAIYTGRWEPFVYWGQGTLVTVSS

Reply:
1: 9.68; 2: 9.82; 3: 9.47
